- Study system: UniProtKB P12931
- Test summary: Src Kinase Assay (33P-ATP filter-binding, Cdc2 peptide substrate)
- Assay type: biochemical
- Setup conditions: compound at 10 μM; c-SRC (h) 5-10 mU, 40 minutes at room temperature
I'd appreciate it if you could supply inhibition at 10 µM values for the items below.

## Task Consider the compound Cc1cccc(Cl)c1NC(=O)Cc1cc(Nc2ncnc(N3CCN(C)CC3)n2)n[nH]1 [Example 106] and give its recorded inhibition at 10 µM.
## Result < 50%

## Task Consider the compound CCc1nc(Nc2ncc(C(=O)Nc3c(C)cccc3Cl)o2)nc(N2CCN(CCO)CC2)n1 [Example 40] and give its recorded inhibition at 10 µM.
## Result > 90%

## Task Consider the compound Cc1cccc(Cl)c1NC(=O)c1cnc(Nc2nc(CC(C)C)nc(N3CCN(CCO)CC3)n2)s1 [Example 34] and give its recorded inhibition at 10 µM.
## Result > 90%

* * *

- Study system: c-SRC (h) (Homo sapiens)
- Sequence (P12931 whole entry): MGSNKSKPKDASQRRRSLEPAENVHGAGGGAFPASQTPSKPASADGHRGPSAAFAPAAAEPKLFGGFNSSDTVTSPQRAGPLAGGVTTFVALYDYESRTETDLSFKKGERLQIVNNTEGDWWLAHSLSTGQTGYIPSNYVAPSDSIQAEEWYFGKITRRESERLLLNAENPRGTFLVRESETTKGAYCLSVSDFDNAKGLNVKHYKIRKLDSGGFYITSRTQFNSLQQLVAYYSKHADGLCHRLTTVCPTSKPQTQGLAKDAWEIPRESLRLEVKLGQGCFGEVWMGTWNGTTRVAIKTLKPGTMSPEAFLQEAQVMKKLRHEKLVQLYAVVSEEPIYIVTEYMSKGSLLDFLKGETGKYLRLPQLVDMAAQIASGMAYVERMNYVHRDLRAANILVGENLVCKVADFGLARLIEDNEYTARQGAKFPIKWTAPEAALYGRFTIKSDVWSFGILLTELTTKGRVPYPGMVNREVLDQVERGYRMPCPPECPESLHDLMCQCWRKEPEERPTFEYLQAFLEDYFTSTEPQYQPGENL
- Test summary: Src Kinase Assay (33P-ATP filter-binding, Cdc2 peptide substrate)
- Assay type: biochemical
- Setup conditions: compound at 10 μM; c-SRC (h) 5-10 mU, 40 minutes at room temperature
I'd appreciate it if you could supply inhibition at 10 µM values for the items below.

## Task Consider the compound Cc1nc(Nc2ncc(C(=O)Nc3c(C)cccc3Cl)s2)nc(N2CCN(CCO)CC2)n1 and give its recorded inhibition at 10 µM.
## Result > 90%

## Task Consider the compound CCc1nc(NCCCN2CCOCC2)nc(Nc2ncc(C(=O)Nc3c(C)cccc3Cl)s2)n1 and give its recorded inhibition at 10 µM.
## Result > 90%

## Task Consider the compound CCc1nc(NCCN(C)C)nc(Nc2ncc(C(=O)Nc3ccccc3)s2)n1 and give its recorded inhibition at 10 µM.
## Result 50 to 90%

## Task Consider the compound O=C(Cc1cnc(Nc2ncnc(N3CCCCC3)n2)s1)Nc1cccc(F)c1 and give its recorded inhibition at 10 µM.
## Result < 50%

## Task Consider the compound Cc1nc(Nc2ncc(C(=O)Nc3c(C)cccc3Cl)s2)nc(N2CCN(CCC#N)CC2)n1 and give its recorded inhibition at 10 µM.
## Result > 90%

## Task Consider the compound CCc1nc(NCCN(C)C)nc(Nc2ncc(C(=O)Nc3c(C)cccc3Cl)s2)n1 and give its recorded inhibition at 10 µM.
## Result > 90%

## Task Consider the compound Cc1nc(NCCCn2ccnc2)nc(Nc2ncc(C(=O)Nc3c(C)cccc3Cl)s2)n1 and give its recorded inhibition at 10 µM.
## Result > 90%

## Task Consider the compound Cc1cccc(Cl)c1NC(=O)Cc1cnc(Nc2ncnc(N3CCN(C)CC3)n2)s1 and give its recorded inhibition at 10 µM.
## Result < 50%

## Task Consider the compound COCC(C)Nc1ncnc(Nc2cc(CC(=O)Nc3cccc(F)c3)[nH]n2)n1 (centres unmarked) and give its recorded inhibition at 10 µM.
## Result < 50%

## Task Consider the compound CN1CCN(c2ncnc(Nc3ncc(CC(=O)Nc4cccc(F)c4)s3)n2)CC1 and give its recorded inhibition at 10 µM.
## Result < 50%

## Task Consider the compound Cc1nc(Nc2ncc(C(=O)Nc3c(C)cccc3Cl)s2)nc(N2CCNC(=O)C2)n1 and give its recorded inhibition at 10 µM.
## Result > 90%

## Task Consider the compound Cc1cccc(Cl)c1NC(=O)c1cnc(Nc2nc(-c3ccccc3)nc(N3CCN(CCO)CC3)n2)s1 and give its recorded inhibition at 10 µM.
## Result > 90%

## Task Consider the compound CCc1nc(NCCN(C)C)nc(Nc2ncc(C(=O)Nc3c(C)cc(C)cc3C)s2)n1 and give its recorded inhibition at 10 µM.
## Result > 90%

## Task Consider the compound O=C(Cc1cc(Nc2ncnc(Nc3ccccc3)n2)n[nH]1)Nc1cccc(F)c1 and give its recorded inhibition at 10 µM.
## Result < 50%

## Task Consider the compound CN1CCN(c2ncnc(Nc3cc(CC(=O)Nc4cccc(F)c4)[nH]n3)n2)CC1 and give its recorded inhibition at 10 µM.
## Result < 50%

## Task Consider the compound Cc1nc(Nc2ncc(C(=O)Nc3c(C)cccc3Cl)s2)nc(N2CCC(CO)CC2)n1 and give its recorded inhibition at 10 µM.
## Result > 90%

## Task Consider the compound CN(C)CCCOc1ncnc(Nc2cc(CC(=O)NCc3ccc(F)cc3)[nH]n2)n1 and give its recorded inhibition at 10 µM.
## Result < 50%

* * *

- Study system: UniProt:P12931
- Test summary: Src Kinase Assay (33P-ATP filter-binding, Cdc2 peptide substrate)
- Assay type: biochemical
- Setup conditions: compound at 10 μM; c-SRC (h) 5-10 mU, 40 minutes at room temperature
Assay metric: inhibition at 10 µM

## Task Consider the molecule Cc1cccc(Cl)c1NC(=O)Cc1cc(Nc2ncnc(OCCCN(C)C)n2)n[nH]1 and give its recorded inhibition at 10 µM.
## Result < 50%

## Task Consider the molecule CCc1nc(NCCN(C)C)nc(Nc2ncc(C(=O)NC3CC3)s2)n1 and give its recorded inhibition at 10 µM.
## Result < 50%

## Task Consider the molecule CCc1nc(Nc2nnc(C(=O)Nc3c(C)cccc3Cl)o2)nc(N2CCN(CCO)CC2)n1 and give its recorded inhibition at 10 µM.
## Result < 50%

## Task Consider the molecule CCc1nc(NCCN(CC)CC)nc(Nc2ncc(C(=O)Nc3c(C)cccc3Cl)s2)n1 and give its recorded inhibition at 10 µM.
## Result > 90%

## Task Consider the molecule Cc1nc(Nc2ncc(C(=O)Nc3c(C)cccc3Cl)s2)nc(N2CCN(Cc3ccncc3)CC2)n1 and give its recorded inhibition at 10 µM.
## Result > 90%

## Task Consider the molecule CN(C)CCN(C)c1ncnc(Nc2cc(CC(=O)Nc3cccc(F)c3)[nH]n2)n1 and give its recorded inhibition at 10 µM.
## Result < 50%

## Task Consider the molecule Cc1nc(Nc2ncc(C(=O)Nc3c(C)cccc3Cl)s2)nc(N2CCN(C)CC2)n1 and give its recorded inhibition at 10 µM.
## Result > 90%

## Task Consider the molecule CCc1nc(NCCN(C)C)nc(Nc2ncc(C(=O)Nc3c(C)cccc3C)s2)n1 and give its recorded inhibition at 10 µM.
## Result > 90%

## Task Consider the molecule CCc1nc(Nc2ncc(CC(=O)Nc3c(C)cccc3Cl)s2)nc(N2CCN(CCO)CC2)n1 and give its recorded inhibition at 10 µM.
## Result < 50%

## Task Consider the molecule CCc1nc(NCCN(C)C)nc(Nc2ncc(C(=O)NC(C)C)s2)n1 and give its recorded inhibition at 10 µM.
## Result < 50%

## Task Consider the molecule Cc1nc(Nc2ncc(C(=O)Nc3c(C)cccc3Cl)o2)nc(N2CCNCC2)n1 and give its recorded inhibition at 10 µM.
## Result > 90%

## Task Consider the molecule CCc1nc(Nc2ncc(C(=O)Nc3c(C)cccc3Cl)s2)nc(N2CCN(c3ccncc3)CC2)n1 and give its recorded inhibition at 10 µM.
## Result > 90%

## Task Consider the molecule CN1CCN(c2ncnc(Nc3cc(CC(=O)NCc4ccc(F)cc4)[nH]n3)n2)CC1 and give its recorded inhibition at 10 µM.
## Result < 50%

## Task Consider the molecule Cc1nc(Nc2ncc(C(=O)Nc3c(C)cccc3Cl)s2)nc(N2CCNCC2)n1 and give its recorded inhibition at 10 µM.
## Result > 90%

## Task Consider the molecule CCc1nc(Nc2ncc(C(=O)Nc3c(C)cccc3Cl)s2)nc(N2CCOCC2)n1 and give its recorded inhibition at 10 µM.
## Result > 90%

## Task Consider the molecule CCc1nc(NCCO)nc(Nc2ncc(C(=O)Nc3c(C)cccc3Cl)s2)n1 and give its recorded inhibition at 10 µM.
## Result > 90%

## Task Consider the molecule CN(C)CCCOc1ncnc(Nc2cc(CC(=O)Nc3cccc(F)c3)[nH]n2)n1 and give its recorded inhibition at 10 µM.
## Result < 50%
